Some compounds, each annotated with its measured zone of inhibition at 100 µg/mL.
# Tested on: Bacillus subtilis
# assay.text: Antibacterial activity against Bacillus subtilis ATCC 6633 assessed as diameter of growth inhibition zone at 100 ug/ml after 24 hr by cup plate method
# Format: functional
# conditions.used: ATCC 6633, 24 h, read-out: DIZ
Answer with a number only, understood to be in mm.

entry.smiles	reading
Sc1nnc(CSc2nnc(-c3ccccc3)n2-c2ccccc2)n1-c1ccccc1	16
Sc1nnc(Sc2nnc(-c3ccccc3)n2-c2ccccc2)n1-c1ccccc1	5
Fc1ccc(-n2c(S)nnc2Sc2nnc(-c3ccccc3)n2-c2ccccc2)cc1	16

API: the following record is the query input.
## Input Look up zone of inhibition at 100 µg/mL: "CC(C)n1c(S)nnc1CSc1nnc(-c2ccccc2)n1-c1ccccc1"
## Output 5

Source listed as ChEMBL document CHEMBL3044913.
